Target: Human neutrophil elastase (Homo sapiens, UniProt P08246 P08246:30-267)
Sequence (P08246 30-267, one chain of several): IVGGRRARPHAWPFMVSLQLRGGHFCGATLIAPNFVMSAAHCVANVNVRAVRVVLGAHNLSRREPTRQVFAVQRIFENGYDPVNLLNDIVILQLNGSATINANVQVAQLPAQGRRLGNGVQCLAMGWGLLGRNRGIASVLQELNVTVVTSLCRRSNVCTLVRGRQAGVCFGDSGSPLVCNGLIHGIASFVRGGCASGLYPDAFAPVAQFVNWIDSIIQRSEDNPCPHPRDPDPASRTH
Assay: filter; no KCl in binding buffer
Conditions: tags: Athens Research and Technology; G4 predicted
assay_endpoint: Kd (µM)
Return type: number; implicit unit µM.

Kindly note the recorded Kd for ligand 21 (class II; ligand 56 same SEQ ID) (ssRNA, 2'-NH2 all pyrimidines) RNA: GGGAGCUCAGAAUAAACGCUCAAGGUAGACAUACGCCUUGGGGGGGUGUCAGGGUAUAUGGUAUUCGACAUGAGGCCCGGAUCCGGC , which is 0.192
